pIC50 by entry:
test system: Trypanosoma cruzi; test: Antitrypanosomal activity against Trypanosoma cruzi bloodstream trypomastigote in mouse blood after 24 hrs relative to control; format: functional, organism-based
Give only the number. pIC50 is defined as minus log10 of concentration in molar units.

Measured pIC50 of O=[N+]([O-])c1ccc2c(c1)c(OCc1ccccc1)nn2CCCCCN1CCCCC1 : 5.18

Field pIC50 (entry CN(C)CCCCCn1nc(OCc2ccccc2)c2cc([N+](=O)[O-])ccc21 ) reads 4.90

Recorded pIC50 (compound CN(C)CCOCCn1nc(OCc2ccccc2)c2cc([N+](=O)[O-])ccc21 ): 4.79

###

tested on: J774; assay: Cytotoxicity in mouse J774 cells at 100 ug/mL after 48 hrs; type: cell-based; conditions: j774, 48 h
test-readout: Activity

Measured on J774, O=[N+]([O-])c1ccc2c(c1)c(O)nn2CCOCCN1CCCCC1 has a documented Activity of Non-toxic

Fill in: J774 Activity for CN(C)CCCCCn1nc(OCc2ccccc2)c2cc([N+](=O)[O-])ccc21 = Toxic

Record COc1nn(CCOCCN2CCCCC2)c2ccc([N+](=O)[O-])cc12.Cl has J774 Activity equal to Non-toxic
